- ASSAY_REMARKS: Example 4: dose response of FKBP constructs 160-255, Ec50, Ec90 and fold change (raw and normalized to mCherry)
- Assay type: cell-based
- MEASUREMENT_PARAMETERS: FKBP constructs 160-255; not normalized; read-out: EC90
Labelling: EC90 reported below 2000 nM becomes 1 (yes); at or above becomes 0 (no).

FKBP-254 (protein, Description of sequence: Construct Name: FKBP-254; Mutation(s): Q72R Q84E A117W DRD G99R) HCPIKSRKGDVLHMHYTGKLEDGTEFDSSLPRNQPFVFSLGTGEVIKGWDQGLLGMCEREKRKLVIPSELGYGERGWPPKIPGGATLVFEVELLKIER :: 1 (yes)
FKBP-243: FKBP13 DRD-AcGFP construct of Table 10 (protein, Description of sequence: Construct Name: FKBP-243; Mutation(s): Q72R Q84E A117W V85R DRD P118S) HCPIKSRKGDVLHMHYTGKLEDGTEFDSSLPRNQPFVFSLGTGERIKGWDQGLLGMCEGEKRKLVIPSELGYGERGWSPKIPGGATLVFEVELLKIER :: 1 (yes)
FKBP-245 (protein, Description of sequence: Construct Name: FKBP-245; Mutation(s): Q72R Q84E A117W DRD S69H) HCPIKSRKGDVLHMHYTGKLEDGTEFDSHLPRNQPFVFSLGTGEVIKGWDQGLLGMCEGEKRKLVIPSELGYGERGWPPKIPGGATLVFEVELLKIER :: 0 (no)
FKBP-162 (protein, C-terminal R deleted; Description of sequence: Construct Name: FKBP-162; Mutation(s): Q72R Q84E A117W DRD M54A del c-term R V85R) HCPIKSRKGDVLHAHYTGKLEDGTEFDSSLPRNQPFVFSLGTGERIKGWDQGLLGMCEGEKRKLVIPSELGYGERGWPPKIPGGATLVFEVELLKIE :: 1 (yes)
FKBP-242 (protein, Description of sequence: Construct Name: FKBP-242; Mutation(s): Q72R Q84E A117W DRD P118S) HCPIKSRKGDVLHMHYTGKLEDGTEFDSSLPRNQPFVFSLGTGEVIKGWDQGLLGMCEGEKRKLVIPSELGYGERGWSPKIPGGATLVFEVELLKIER :: 1 (yes)

Record FKBP-189 (protein, Description of sequence: Construct Name: FKBP-189; Mutation(s): Q72R Q84E A117W V85R DRD M54A H53G R72L) HCPIKSRKGDVLGAHYTGKLEDGTEFDSSLPLNQPFVFSLGTGERIKGWDQGLLGMCEGEKRKLVIPSELGYGERGWPPKIPGGATLVFEVELLKIER : is its EC90 strictly below 2000 nM? 0 (no)
